Target: T1, ZFP SBS#1335 (synthetic)
T1 chain: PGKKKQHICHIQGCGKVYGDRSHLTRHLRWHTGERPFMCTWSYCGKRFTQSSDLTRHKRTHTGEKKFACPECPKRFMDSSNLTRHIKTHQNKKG
Assay: EMSA
Details: tags: MBP fusion
measured attribute: Kd (nM)
Give your result in nM as a bare value.

Sure, the documented Kd for GACGCTGGC (dsDNA) DNA 1: GACGCTGGC DNA 2: GCCAGCGTC is 1.4
